# EXPERIMENTAL_TARGET: Integrin alpha-4/beta-7 (Homo sapiens, UniProt P13612+P26010)
# Sequence (P13612 whole entry): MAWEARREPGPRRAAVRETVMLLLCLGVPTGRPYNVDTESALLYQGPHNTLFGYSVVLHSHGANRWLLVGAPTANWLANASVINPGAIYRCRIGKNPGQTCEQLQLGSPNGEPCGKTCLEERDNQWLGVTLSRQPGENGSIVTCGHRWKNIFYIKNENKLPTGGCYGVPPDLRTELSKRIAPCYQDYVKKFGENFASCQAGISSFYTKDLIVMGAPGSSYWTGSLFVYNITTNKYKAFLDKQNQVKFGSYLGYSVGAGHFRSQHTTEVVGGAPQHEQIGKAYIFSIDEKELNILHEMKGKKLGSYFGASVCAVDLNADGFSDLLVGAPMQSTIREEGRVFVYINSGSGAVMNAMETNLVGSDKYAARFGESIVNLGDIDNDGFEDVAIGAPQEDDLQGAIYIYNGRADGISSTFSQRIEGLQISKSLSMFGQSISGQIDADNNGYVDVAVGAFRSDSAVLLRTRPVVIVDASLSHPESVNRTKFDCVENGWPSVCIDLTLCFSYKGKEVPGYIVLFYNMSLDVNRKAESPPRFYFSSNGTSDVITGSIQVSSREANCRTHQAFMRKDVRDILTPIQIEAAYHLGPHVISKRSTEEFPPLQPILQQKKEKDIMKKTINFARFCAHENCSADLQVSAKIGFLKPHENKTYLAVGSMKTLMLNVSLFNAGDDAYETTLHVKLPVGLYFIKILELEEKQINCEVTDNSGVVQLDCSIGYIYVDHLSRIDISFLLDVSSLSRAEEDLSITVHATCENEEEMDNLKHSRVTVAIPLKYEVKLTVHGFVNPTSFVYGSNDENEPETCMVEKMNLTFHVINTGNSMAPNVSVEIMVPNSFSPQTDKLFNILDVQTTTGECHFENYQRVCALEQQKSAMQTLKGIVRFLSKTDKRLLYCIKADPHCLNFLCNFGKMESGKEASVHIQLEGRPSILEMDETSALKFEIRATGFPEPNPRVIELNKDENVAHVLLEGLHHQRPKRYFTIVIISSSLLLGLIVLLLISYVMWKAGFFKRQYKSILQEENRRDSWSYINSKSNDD
# Sequence (P26010 whole entry): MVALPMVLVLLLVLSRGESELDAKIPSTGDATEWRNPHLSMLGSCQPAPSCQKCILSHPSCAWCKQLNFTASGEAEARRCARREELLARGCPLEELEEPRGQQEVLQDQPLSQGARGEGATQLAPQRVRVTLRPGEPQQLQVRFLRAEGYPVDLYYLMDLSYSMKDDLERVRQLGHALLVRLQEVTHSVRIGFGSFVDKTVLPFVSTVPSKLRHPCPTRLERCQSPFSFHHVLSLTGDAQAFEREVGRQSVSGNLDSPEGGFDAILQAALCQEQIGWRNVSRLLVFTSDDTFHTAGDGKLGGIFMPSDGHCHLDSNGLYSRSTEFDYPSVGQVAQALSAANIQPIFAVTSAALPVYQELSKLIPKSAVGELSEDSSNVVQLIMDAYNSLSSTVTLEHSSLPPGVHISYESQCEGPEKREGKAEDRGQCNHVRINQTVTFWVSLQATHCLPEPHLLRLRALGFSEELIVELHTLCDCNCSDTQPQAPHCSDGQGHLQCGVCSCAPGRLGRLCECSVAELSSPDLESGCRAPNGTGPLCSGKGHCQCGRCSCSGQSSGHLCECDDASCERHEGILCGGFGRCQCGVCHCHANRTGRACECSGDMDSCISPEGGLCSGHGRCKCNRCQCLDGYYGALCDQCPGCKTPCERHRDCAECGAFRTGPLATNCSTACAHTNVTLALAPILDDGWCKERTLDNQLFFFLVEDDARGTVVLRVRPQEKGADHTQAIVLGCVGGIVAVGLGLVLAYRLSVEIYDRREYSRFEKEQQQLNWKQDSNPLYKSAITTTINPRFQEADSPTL
# EXPERIMENTAL_PROTOCOL: Binding affinity towards […] receptor in human RPMI-8866 B-cell line using [125I]MAdCAM-Ig as radioligand
pIC50: −log10 of the molar value.
MEASURED_QUANTITY: pIC50

>>> obs_value("COc1ccccc1-c1ccc(C[C@H](NC(=O)C2(S(=O)(=O)c3ccc(F)cc3)CCCC2)C(=O)O)cc1")
7.40
>>> obs_value("COc1cccc(OC)c1-c1ccc(C[C@H](NC(=O)C2(S(=O)(=O)c3ccccc3)CCOC2)C(=O)O)cc1 (stereo partly drawn)")
8.28
>>> obs_value("COc1ccccc1-c1ccc(C[C@H](NC(=O)C2(S(=O)(=O)c3ccccc3)CCCN(C)C2)C(=O)O)cc1 (stereo partly drawn)")
5.24
>>> obs_value("COc1ccccc1-c1ccc(C[C@H](NC(=O)C2(S(=O)(=O)c3ccccc3)CCN(c3ccccc3)CC2)C(=O)O)cc1")
5.90
>>> obs_value("COc1cccc(OC)c1-c1ccc(C[C@H](NC(=O)C2(S(=O)(=O)c3ccccc3Br)CCCNC2)C(=O)O)cc1 (stereo partly drawn)")
7.02
>>> obs_value("COc1ccccc1-c1ccc(C[C@H](NC(=O)C2(S(=O)(=O)c3ccccc3)CCSCC2)C(=O)O)cc1")
6.89
>>> obs_value("COc1cccc(OC)c1-c1ccc(C[C@H](NC(=O)C2(S(=O)(=O)c3ccccc3)CCCNC2)C(=O)O)cc1 (stereo partly drawn)")
6.77
>>> obs_value("CCN1CCC(C(=O)N[C@@H](Cc2ccc(-c3ccccc3OC)cc2)C(=O)O)(S(=O)(=O)c2ccccc2)CC1")
5.91

----------
# EXPERIMENTAL_TARGET: Integrin alpha-4/beta-7 (Homo sapiens) (UniProt P13612+P26010)
# EXPERIMENTAL_PROTOCOL: Percent inhibition of [125I]VCAM-Ig binding to human integrin alpha4-beta7 receptor of RPMI-8866 cells at 100 nM
# Assay type: cell-based
Recorded inhibition, one value per entry.
MEASURED_QUANTITY: inhibition (%)

>>> obs_value("O=C(O)[C@H](Cc1ccc(-c2ccccc2)cc1)NC(=O)C1(S(=O)(=O)Cc2ccccc2)CCCC1")
-7
>>> obs_value("O=C(O)[C@H](Cc1ccc(-c2ccccc2)cc1)NC(=O)C1(S(=O)(=O)C2CCCCC2)CCCC1")
16
>>> obs_value("O=C(O)[C@H](Cc1ccc(-c2ccccc2)cc1)NC(=O)C1(S(=O)(=O)c2ccc(Br)cc2)CCCCC1")
19
>>> obs_value("O=C(O)[C@H](Cc1ccc(-c2ccccc2)cc1)NC(=O)C1(S(=O)(=O)C2CCCCC2)CCCCC1")
24
>>> obs_value("O=C(O)[C@H](Cc1ccc(-c2ccccc2)cc1)NC(=O)C1(S(=O)(=O)Cc2ccccc2)CCCCC1")
14
>>> obs_value("O=C(O)[C@H](Cc1ccc(-c2ccccc2)cc1)NC(=O)C1(S(=O)(=O)c2ccc(Br)cc2)CCCC1")
20
>>> obs_value("O=C(O)[C@H](Cc1ccc(-c2ccccc2)cc1)NC(=O)C1(S(=O)(=O)c2ccccc2Br)CCCC1")
8
>>> obs_value("O=C(O)[C@H](Cc1ccc(-c2ccccc2)cc1)NC(=O)C1(S(=O)(=O)c2ccccc2Br)CCCCC1")
13
>>> obs_value("Cc1ccc(S(=O)(=O)C2(C(=O)N[C@@H](Cc3ccc(-c4ccccc4)cc3)C(=O)O)CCCCC2)cc1")
0
>>> obs_value("O=C(O)[C@H](Cc1ccc(-c2ccccc2)cc1)NC(=O)C1(S(=O)(=O)c2ccccc2)CCCC1")
18
>>> obs_value("Cc1ccc(S(=O)(=O)C2(C(=O)N[C@@H](Cc3ccc(-c4ccccc4)cc3)C(=O)O)CCCC2)cc1")
2
>>> obs_value("O=C(O)[C@H](Cc1ccc(-c2ccccc2)cc1)NC(=O)C1(S(=O)(=O)c2cccc3ccccc23)CCCC1")
7

Values from ChEMBL document CHEMBL1145739
